Assignment: determine reported TGI for the given compounds.
- System: MOLT-4 leukemia
- assay name: NCI tumour cell line growth inhibition, 48 h

O=C(/C=C/c1ccc(O)c(O)c1)OCCCc1ccccc1 = 36.4 µM
C=C1C(=O)O[C@H]2C[C@@H]1CC/C(C)=C/CC/C(C)=C/CC[C@H]2C = > 24.6 µM
COC(=O)C1=C(C(=O)OC)C(C(=O)c2ccc(Br)cc2)N2N=C(c3ccc(Cl)cc3)C=CC12 (configuration not stated) = > 100 µM
S=C(Nc1ccc(Br)cc1)Nc1ccc(Br)cc1 = > 100 µM
CN(C)CCCOc1ccc(-c2ccc3ncc4c(c3c2)n(C2CCOCC2)c(=O)n4C)cn1 = 14.4 µM

// for each compound in input: emit TGI
1. COc1ccc(OC)c(/C(C)=N/NC(N)=S)c1
2. O=[N+]([O-])C1CC/C(=N/O)c2nonc21 (configuration not stated)
3. CN[C@H]1C=C[C@@H]2/C=C(C)/C=C/[C@@H](C)[C@H]([C@H](C)[C@H](O)[C@@H](C)NC(C)=O)OC(=O)/C=C/C=C(C)\C=C\[C@]2(C)C1
4. O=S(=O)(Nc1ccccc1Cl)c1ccc(-c2cnc(C3CC3)o2)cc1
5. COC(=O)NCCc1[nH]nc2c1C(=O)C=C(N1CCOCC1)C2=O

[reply]
1: > 100 µM; 2: > 10 µM; 3: > 49 µM; 4: > 63.6 µM; 5: > 100 µM

###

- Test system: SK-MEL-5 melanoma
- assay name: NCI tumour cell line growth inhibition, 48 h
Assignment: determine reported TGI for the given compounds.

Solved entries (count: 3):
O=C1c2ccccc2C(Br)(Br)c2ccccc21 = > 31.6 µM
O=C(c1ccco1)N1CCCN(C(=O)c2ccco2)C1=S = > 100 µM
CCCC(=O)NC1=C(Cl)C(=O)c2ccccc2C1=O = 6.85 µM

// for each compound in input: emit TGI
1. O=C1Nc2ccccc2C12CCNC2Cc1ccccc1 (configuration not stated)
2. COc1ccc(S(=O)(=O)N2CC(C)(C)CN(S(=O)(=O)c3ccc(OC)cc3)C2C(=O)NO)cc1
3. CC(=O)[C@@]1(C)CC2(CCN(C)CC2)OC1C (some centres not stated)
4. COc1ccc2nc3c([N+](=O)[O-])ccc4c3c(c2c1)NCCN4CCO

[reply]
> 100 µM
> 7.63 µM
> 100 µM
1.15 µM

###

- Tested on: RPMI-8226 leukemia
- assay name: NCI tumour cell line growth inhibition, 48 h
quantity name: TGI

Solved entries (count: 5):
CN1CCCC2(CCCc3ccccc32)C1 (stereo unspecified) = > 100 µM
COc1ccc(-c2cc(=O)c3ccc(C)nc3[nH]2)cc1 = > 100 µM
COc1ccc(OC)c(/C(C)=N/NC(N)=S)c1 = > 100 µM
CCCCC(=O)NS(=NC(=O)c1ccccc1)C(Cl)(Cl)Cl (stereo unspecified) = > 100 µM
CC(=O)N=C1N(/C=C2\C(=O)Oc3ccccc3C2=O)C(=O)/C(=C/c2ccc(OC(C)=O)cc2)N1C = > 100 µM

// for each molecule in input: emit TGI
1. CC1CCC2(CC1)NN=c1s/c(=C\c3ccc(O)cc3)c(=O)n1N2 (stereo unspecified)
2. COC(=O)CCc1c[nH]c2ccc(N(CCCl)CCCl)cc12
3. C[C@]12CC[C@H]3[C@@H](CC=C4C[C@@H](N5CCCC5)CC[C@@]43C)[C@@H]1C[C@H](N1CCOCC1)[C@@H]2O
4. COc1ccc2c(CCN)c(C(=O)O)[nH]c2c1
5. Cc1ccc(N=N/C(=N\NC(=O)c2ccc(C)cc2)c2ccc(N(CCC#N)CCC#N)cc2C)cc1
6. Cc1ccc(N2Cc3c(ccc4ccccc34)OP2(=O)Oc2ccc(Cl)c(C)c2)cc1 (stereo unspecified)

[reply]
1. > 100 µM
2. > 55.9 µM
3. > 100 µM
4. > 100 µM
5. > 100 µM
6. > 22.3 µM

Origin of measurements: PubChem BioAssay (NCI)
